Every entry's value here was drawn from ChEMBL document CHEMBL1139835.

# assay-remarks: Displacement of [3H]batrachotoxin from sodium channel in rat brain
# Type: tissue-based
measured-endpoint: pIC50
// pIC50: -log10(molar conc.)

Give the measured pIC50 of Cc1cc(C(=O)c2ccccc2)ccc1NC(=O)C[C@@H]1CCCN2CCCC[C@H]12 .
5.43

---

# assay-remarks: Negative chronotropic activity assessed as decrease in atrial rate in isolated guinea pig right atrium at 50 uM relative to control
# Format: functional, Cavia porcellus, Cardiac atrium
# Parameters: scale not given: the % may be the effect or the level left
measured-endpoint: Activity (%)
Answer with a number only, understood to be in %.

Guide cases for Activity, answers given:
Cc1cc(C(=O)c2ccccc2)cc(C)c1OC[C@@H]1CCCN2CCCC[C@H]12
41
CC(=O)Nc1ccc(C(=O)NC[C@@H]2CCCN3CCCC[C@H]23)cc1
14
C=C[C@H]1CN2CC[C@H]1C[C@@H]2[C@@H](O)c1ccnc2ccc(OC)cc12
86
Cc1cc([N+](=O)[O-])cc(C)c1OC[C@@H]1CCCN2CCCC[C@H]12
66
Cc1cc(C(=O)c2ccccc2)cc(C)c1OC[C@H]1CCCN2CCCC[C@H]12
75

Give the measured Activity of Cc1cc(C(=O)c2ccccc2)cc(C)c1NC(=O)C[C@@H]1CCCN2CCCC[C@H]12 .
70

---

Entries and their inhibition at 50 µM
# Tested on: Aorta
# assay-remarks: Inhibition of calcium-induced contraction of potassium ion depolarized guinea pig aortic strips at 50 uM
# Assay type: functional
# conditions: Cavia porcellus
Answer with a number only, understood to be in %.

Guide cases for inhibition at 50 µM, answers given:
Cc1cc(C(=O)c2ccccc2)cc(C)c1OC[C@H]1CCCN2CCCC[C@H]12
38
Cc1cccc(C)c1OC[C@@H]1CCCN2CCCC[C@H]12
26

Give the measured inhibition at 50 µM of Cc1cc([N+](=O)[O-])cc(C)c1OC[C@H]1CCCN2CCCC[C@H]12 .
19

And then Cc1cc(N)cc(C)c1OC[C@H]1CCCN2CCCC[C@H]12 , what is it?
32
